# Tested on: p53 signaling (p53RE-bla HCT-116 cells)
Please note: 1 (yes) applies when p53 activation efficacy is 40 or greater, and 0 (no) applies otherwise.

Examples with answers:
CCOP(=S)(OCC)OC(Cl)C(Cl)(Cl)Cl (stereo not drawn) [Chlorethoxyfos]    1 (yes)
CCOP(=S)(OCC)SC(CCl)N1C(=O)c2ccccc2C1=O (stereo not drawn) [Dialifor]    1 (yes)
Nc1nc(N)c2nc(CNc3ccc(C(=O)N[C@@H](CCC(=O)O)C(=O)O)cc3)cnc2n1 [Aminopterin]    0 (no)
CCN(CC)C(=O)SCc1ccc(Cl)cc1 [Thiobencarb]    1 (yes)

Reported p53 activation efficacy reaches at least 40 for CCOP(=S)(Oc1cnc(C(C)(C)C)nc1)OC(C)C (stereo not drawn) [Tebupirimfos] ?
1 (yes)

What do you get for COP(=O)(OC)O/C(C)=C/C(=O)N(C)C [Dicrotophos] ?
1 (yes)

Ref: paper PMC9151520
